target: Gal-1 (Homo sapiens); construct: made in house; host or cells: E. coli BL21(DE3); assay: Pull-down assay with immobilized protein and LSM libraries; format: binding; settings: H14 library; 1:1 binding assumed; read-out: Surface mapping KD (apparent)
Sequence (P09382 whole entry): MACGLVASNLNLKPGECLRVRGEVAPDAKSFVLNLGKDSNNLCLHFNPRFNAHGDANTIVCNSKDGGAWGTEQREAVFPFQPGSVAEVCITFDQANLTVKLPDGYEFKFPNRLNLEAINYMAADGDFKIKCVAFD

MOLECULE: CC(C)C[C@@H](CC(=O)N[C@H]1CCCC[C@@H]1C(=O)N[C@H]1CCCC[C@@H]1C(=O)N[C@@H](C)CC(=O)N[C@H]1CCCC[C@@H]1C(N)=O)NC(=O)[C@H]1CCCC[C@@H]1N [H14 LA]
Kd (µM): 160
--
MOLECULE: C[C@@H](CC(=O)N[C@H]1CCCC[C@@H]1C(N)=O)NC(=O)[C@H]1CCCC[C@@H]1NC(=O)[C@H]1CCCC[C@@H]1NC(=O)C[C@@H](NC(=O)[C@H]1CCCC[C@@H]1N)[C@@H](C)O [H14 TA]
Kd (µM): 425
--
MOLECULE: CC(C)[C@@H](CC(=O)N[C@H]1CCCC[C@@H]1C(N)=O)NC(=O)[C@H]1CCCC[C@@H]1NC(=O)[C@H]1CCCC[C@@H]1NC(=O)C[C@H](CC(N)=O)NC(=O)[C@H]1CCCC[C@@H]1N [H14 NV]
Kd (µM): 349
